TGT: Solute carrier family 12 member 5 (Homo sapiens)
METHOD: modulation of human KCC2 ion transport – cell-based, HEK293 KCC2, FluoZin-2 fluorescence, MLSMR, primary screen (AID 1456)
TEST CONDITIONS: KCC2 cells, thallium flux FluoZin-2 fluorescence; at 10 µM
The whole screen tested about 190,000 compounds, of which about 4,100 (2.2%) were called active.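 How the source made its calls: active means thallium flux slope and its plate-corrected score both differing from the plate sample mean at a set confidence after two filtering rounds, in either direction; inactive means the rest.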 The entries come from a sample that favours actives as a whole.
Log the outcome using a class from t = active, f = inactive

What was the test verdict on O=C(O)c1ccccc1OCc1ccccc1Cl ?
f

Thanks! And CC1CCCCN1S(=O)(=O)c1ccc(S(=O)(=O)N(CC(=O)Nc2ccccc2)Cc2cccs2)cc1 (stereo not given) ?
f

Thanks! And CC(C)C[C@H](CO)Nc1nc(N(C)c2cccc(Cl)c2)c2ncn(C(C)C)c2n1 ?
f

Thanks! And O=C1NC(c2cccc(Cl)c2)Nc2ccccc21 (stereo not given) ?
f

Thanks! And Brc1ccc(-c2n(-c3ccccn3)c3ccccc3[n+]2-c2ccccn2)cc1 ?
f

Thanks! And COc1cc(/C=C2/C(=O)NN(c3ccc(F)cc3)C2=O)cc([N+](=O)[O-])c1O ?
f

Thanks! And C#CCNc1ccc(C(=O)OCC)cc1 ?
f

Thanks! And CCOC(=O)C(C)n1cnc2sc(C)c(C)c2c1=O (stereo not given) ?
f

Thanks! And CCOc1cccc(/C=N/N2C(=O)CSC2=S)c1O ?
t

Thanks! And COc1ccc(C(=O)N/N=C(\C)CC(=O)Nc2ccc(Cl)cn2)cc1 ?
f

Thanks! And COc1ccccc1NC(=S)NC(=O)C(C)C ?
f

Thanks! And COc1ccc(NC(=S)Nc2ccccc2Cl)cn1 ?
f

Thanks! And C/C(=N/NC(=O)c1ccc(Br)o1)c1ccc(C)o1 ?
f

Thanks! And CC1CC(C)(C)n2c(O)c(N=NC(N)=S)c3cccc1c32 (stereo not given) ?
t

Thanks! And COc1cc(C=O)ccc1Oc1nnnn1-c1ccccc1 ?
f

Thanks! And OCCCNc1nccc(-c2cc(Nc3cccc(Cl)c3)ncn2)n1 ?
f

Thanks! And COc1ccc(N(Cc2ccccc2)S(=O)(=O)c2cccc(C(=O)O)c2)cc1 ?
f

Thanks! And O=C(NN1C(=O)C2CCCCC2C1=O)c1ccco1 (stereo not given) ?
f

Thanks! And NC(=O)C1(C(N)=O)OC1c1ccc(Cl)cc1Cl (stereo not given) ?
f

Thanks! And COc1cccc(CNC(=O)CCN2C(=S)NC(C)(C)CC2C)c1 (stereo not given) ?
f

Thanks! And O=C(Nc1cn(-c2ccccc2)nc1-c1ccccc1)c1ccccc1 ?
f

Thanks! And O=C(NNC(=S)NC(=O)c1cn(-c2ccccc2)nc1-c1ccccc1)c1ccncc1 ?
t

Thanks! And O=C1c2ccccc2NC(c2ccc(-c3cccc(Cl)c3)o2)N1O (stereo not given) ?
t

Thanks! And COc1ccc(OC)c(S(=O)(=O)Nc2ccccc2F)c1 ?
f

Thanks! And O=C1Cc2ccccc2Sc2ccc(Cl)cc21 ?
f

Thanks! And COc1ccc(Cl)cc1CSc1ncn[nH]1 ?
f

Thanks! And CC(=O)N(OCc1ccc(OC(C)C)c(Cl)c1)C(C)=O ?
f

Thanks! And O=C(O)c1ccc(NC(=O)c2cn(-c3ccccc3)nc2-c2ccc(Cl)cc2)cc1 ?
f

Thanks! And S=C1Nc2cc(Cl)ccc2Sc2ccccc21 ?
t

Thanks! And Cc1ccc(NC(=S)NC2CCCC2)cc1 ?
f

Thanks! And COc1cc(OC)c(OC)cc1/C=N/Nc1ncnc2c1[nH]c1ccc(C)cc12 ?
f

Thanks! And O=C(Cc1csc(Nc2nc(=S)[nH]c3ccccc23)n1)NCCCN1CCN(c2cccc(Cl)c2)CC1 ?
t

Thanks! And Cc1ccc(/C=N/NC(=S)NC2CCCCC2)o1 ?
t

Thanks! And Cc1[nH]n(-c2ccc(Cl)cc2)c(=O)c1/C=N/n1c(C)nc2ccccc2c1=O ?
f

Thanks! And O=C1CSC(=S)N1/N=C/c1ccc(O)c([N+](=O)[O-])c1 ?
f

Thanks! And N#Cc1c2c(c(-c3ccccc3)[nH]c1=O)CCCC2 ?
f

Thanks! And O=C(O)c1ccccc1C(=O)Nc1ccccc1[N+](=O)[O-] ?
f

Thanks! And CCOC(=O)CC1C(=O)NCCN1c1nc2c(C)cccn2c(=O)c1/C=C1\SC(=S)N(C(C)CC)C1=O (stereo not given) ?
f

Thanks! And Cc1sc2ncnc(Sc3nc4ccccc4s3)c2c1C ?
t

Thanks! And CCn1c(=O)cc(OCC(=O)NCCCN2CCN(c3cccc(Cl)c3)CC2)c2ccccc21 ?
f
